# Tested on: MKL-1
# methodDescription: qHTS assay to identify novel small-molecules to repurpose for Merkel cell carcinoma treatment (AID 1296009); also: nearly all actives have a fitted effect of over 60% in size
# experimentalParameters: MCC and control cell lines, CellTiter-Glo viability, 72 h; series mostly up to 46 µM
Inconclusive results are not listed. Calls of active or inactive are those of the source. Calls follow the shape of the dose curve; as a rule, active = well fitted inhibition curve with a large enough effect; inconclusive = small, poorly fitted or top-dose-only effect; inactive = flat fitted curve, though single readings scatter.
Choose the fitting class; nothing outside active, inactive is accepted.

Which outcome did this test record for the molecule O=C(O)C(=O)c1cn(Cc2ccccc2)c2ccc(-c3ccc(OC(F)(F)F)cc3)cc12 ?
inactive

Which outcome did this test record for the molecule c1ccc2c(c1)OCC(C1=NCCN1)O2 (stereo unspecified) ?
active

Which outcome did this test record for the molecule NCCc1cc(O)c(O)cc1O ?
inactive

Which outcome did this test record for the molecule C[C@H]1O[C@@H](O[C@H]2[C@@H](O)C[C@H](O[C@H]3[C@@H](O)C[C@H](O[C@H]4CC[C@@]5(C)[C@H](CC[C@@H]6[C@@H]5CC[C@]5(C)[C@@H](C7=CC(=O)OC7)CC[C@]65O)C4)O[C@@H]3C)O[C@@H]2C)C[C@H](O)[C@@H]1O ?
active

Which outcome did this test record for the molecule CN1C(=S)CN=C(c2ccccc2)c2cc(Cl)ccc21 ?
inactive

Which outcome did this test record for the molecule COc1ccccc1N1CCNCC1 ?
inactive

Which outcome did this test record for the molecule NCC1(CC(=O)O)CCCCC1 ?
inactive

Which outcome did this test record for the molecule CC[C@@H](CO)NC(=O)[C@@H]1C=C2c3cccc4[nH]cc(c34)C[C@H]2N(C)C1 ?
inactive

Which outcome did this test record for the molecule Oc1ccc(Cl)cc1Cc1ccccc1 ?
inactive

Which outcome did this test record for the molecule COc1ccc(C(CN(C)C)C2(O)CCCCC2)cc1 (stereo unspecified) ?
inactive

Which outcome did this test record for the molecule Cc1cccc(C)c1NC(=O)CN1CCCC1=O ?
inactive
